procedure_text: Water solubility of compound at pH 7
Type: physicochemical
solubility: recorded values
Kindly answer with a numeric value in µg/mL, unit omitted.

CCC(=O)N1CCC(=CC#Cc2cc(C)c(Oc3ccnc(Nc4ccc(C#N)cc4)n3)c(C)c2)CC1: 62.2
Cc1cc(C#CC=C2CCNCC2)cc(C)c1Oc1ccnc(Nc2ccc(C#N)cc2)n1: 60.5

Query :: # input compound: `Cc1cc(C#CC=C2CCN(S(C)(=O)=O)CC2)cc(C)c1Oc1ccnc(Nc2ccc(C#N)cc2)n1` ; wanted: its solubility
Result :: 27.1

----------
procedure_text: Selectivity index, ratio of CC50 for human MT4 cells to EC50 for Antiviral activity against HIV-1 IIIB infected in human MT4 cells
Type: toxicity, cell-based
measurement_parameters: read-out: Selectivity Index
measured_parameter: selectivity ratio
When you answer, write just the number.

Cc1cc(C#CC=C2CCN(S(C)(=O)=O)CC2)cc(C)c1Oc1ccnc(Nc2ccc(C#N)cc2)n1: 186
C=CC(=O)N1CCC(=CC#Cc2cc(C)c(Oc3ccnc(Nc4ccc(C#N)cc4)n3)c(C)c2)CC1: 116
Cc1cc(C#CC=C2CCN(S(=O)(=O)C3CC3)CC2)cc(C)c1Oc1ccnc(Nc2ccc(C#N)cc2)n1: 47
CCOC(=O)CN1CCC(=CC#Cc2cc(C)c(Oc3ccnc(Nc4ccc(C#N)cc4)n3)c(C)c2)CC1: 29
CCS(=O)(=O)N1CCC(=CC#Cc2cc(C)c(Oc3ccnc(Nc4ccc(C#N)cc4)n3)c(C)c2)CC1: 62
Cc1cc(C#CC=C2CCN(Cc3cccc([N+](=O)[O-])c3)CC2)cc(C)c1Oc1ccnc(Nc2ccc(C#N)cc2)n1: 399

Query :: # input compound: `CCC(=O)N1CCC(=CC#Cc2cc(C)c(Oc3ccnc(Nc4ccc(C#N)cc4)n3)c(C)c2)CC1` ; wanted: its selectivity ratio
Result :: 201

Query :: # input compound: `Cc1cc(C#CC=C2CCN(S(=O)(=O)N(C)C)CC2)cc(C)c1Oc1ccnc(Nc2ccc(C#N)cc2)n1` ; wanted: its selectivity ratio
Result :: 42

Query :: # input compound: `Cc1cc(C#CC=C2CCN(C(=O)OC(C)(C)C)CC2)cc(C)c1Oc1ccnc(Nc2ccc(C#N)cc2)n1` ; wanted: its selectivity ratio
Result :: 26

Query :: # input compound: `Cc1cc(C#CC=C2CCN(Cc3ccccn3)CC2)cc(C)c1Oc1ccnc(Nc2ccc(C#N)cc2)n1` ; wanted: its selectivity ratio
Result :: 75

Query :: # input compound: `Cc1cc(C#CC=C2CCN(C(=O)N(C)C)CC2)cc(C)c1Oc1ccnc(Nc2ccc(C#N)cc2)n1` ; wanted: its selectivity ratio
Result :: 125

Query :: # input compound: `Cc1cc(C#CC=C2CCNCC2)cc(C)c1Oc1ccnc(Nc2ccc(C#N)cc2)n1` ; wanted: its selectivity ratio
Result :: 294

Query :: # input compound: `Cc1cc(C#CC=C2CCN(S(=O)(=O)C(C)C)CC2)cc(C)c1Oc1ccnc(Nc2ccc(C#N)cc2)n1` ; wanted: its selectivity ratio
Result :: 27

Query :: # input compound: `COC(=O)c1ccc(CN2CCC(=CC#Cc3cc(C)c(Oc4ccnc(Nc5ccc(C#N)cc5)n4)c(C)c3)CC2)cc1` ; wanted: its selectivity ratio
Result :: 51
